# TARGET OF ASSAY: GST-p300 (p300 CH1 domain, residues 330–420) (Homo sapiens, UniProt Q09472)
# Sequence (Q09472 330-420): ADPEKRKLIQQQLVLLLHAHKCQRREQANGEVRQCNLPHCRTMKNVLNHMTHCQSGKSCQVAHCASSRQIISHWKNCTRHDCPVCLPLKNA
# ASSAY TEXT: Fluorescence anisotropy direct titration of GFP-HIF-1α776–826 variants with GST-p300
# Assay type: binding
# CONDITION SUMMARY: 50 nM GFP-HIF-1α776–826 variant, GST-p300 serial dilution, 25 mM Tris–HCl, 150 mM NaCl, 1 mM DTT, pH 7.4, 27 °C, 1:1 model, ± standard error of fitted value, technical triplicates
No end group written: not given here.
READOUT: Kd (nM)
Use nM as the unit, but write only the number.

SUBSTANCE	TARGET OF ASSAY	READOUT	MEASURED VALUE
L795A D799A L822A: GFP-HIF-1α776–826 C-TAD multiple alanine variant ({GFP}-SDLACRLLGQSMDESGLPQATSYACEVNAPIQGSRNLLQGEELLRAADQVN; cysteine pairing not given here)	GST-p300 (p300 CH1 domain, residues 330–420) (Homo sapiens, UniProt Q09472)	Kd	174

Let's switch to this substance now.
I'd like to know its Kd. The substance in question is S797A: GFP-HIF-1α776–826 C-TAD single alanine variant S797A ({GFP}-SDLACRLLGQSMDESGLPQLTAYDCEVNAPIQGSRNLLQGEELLRALDQVN; cysteine pairing not given here)
37

###

Attribute: Kd
# TARGET OF ASSAY: GST-p300 (p300 CH1 domain, residues 330–420) (Homo sapiens, UniProt Q09472)
# ASSAY TEXT: Fluorescence anisotropy direct titration of GFP-HIF-1α776–826 variants with GST-p300
# Type: binding
# CONDITION SUMMARY: 50 nM GFP-HIF-1α776–826 variant, GST-p300 serial dilution, 25 mM Tris–HCl, 150 mM NaCl, 1 mM DTT, pH 7.4, 27 °C, 1:1 model, ± standard error of fitted value, technical triplicates
No end group written: not given here.
Form entry: value (nM) — number only.

SUBSTANCE	Kd [nM]
L795A: GFP-HIF-1α776–826 C-TAD single alanine variant L795A ({GFP}-SDLACRLLGQSMDESGLPQATSYDCEVNAPIQGSRNLLQGEELLRALDQVN; cysteine pairing not given here)	118
D799A E801A N803A: GFP-HIF-1α776–826 C-TAD multiple alanine variant ({GFP}-SDLACRLLGQSMDESGLPQLTSYACAVAAPIQGSRNLLQGEELLRALDQVN; cysteine pairing not given here)	590

If you can, please state the reported Kd value of N803A: GFP-HIF-1α776–826 C-TAD single alanine variant N803A ({GFP}-SDLACRLLGQSMDESGLPQLTSYDCEVAAPIQGSRNLLQGEELLRALDQVN; cysteine pairing not given here) .
120

Record request: Kd value, item L795A D799A L818A L822A V825A: GFP-HIF-1α776–826 C-TAD multiple alanine variant ({GFP}-SDLACRLLGQSMDESGLPQATSYACEVNAPIQGSRNLLQGEEALRAADQAN; cysteine pairing not given here)
153

Given the substance D799A: GFP-HIF-1α776–826 C-TAD single alanine variant D799A ({GFP}-SDLACRLLGQSMDESGLPQLTSYACEVNAPIQGSRNLLQGEELLRALDQVN; cysteine pairing not given here) , what is its reported Kd?
114

// lookup Kd for L818A L822A: GFP-HIF-1α776–826 C-TAD multiple alanine variant ({GFP}-SDLACRLLGQSMDESGLPQLTSYDCEVNAPIQGSRNLLQGEEALRAADQVN; cysteine pairing not given here)
126

// Kd lookup, key: E801A L822A: GFP-HIF-1α776–826 C-TAD multiple alanine variant ({GFP}-SDLACRLLGQSMDESGLPQLTSYDCAVNAPIQGSRNLLQGEELLRAADQVN; cysteine pairing not given here)
224

Please look up its Kd: L818A L822A D823A: GFP-HIF-1α776–826 C-TAD multiple alanine variant ({GFP}-SDLACRLLGQSMDESGLPQLTSYDCEVNAPIQGSRNLLQGEEALRAAAQVN; cysteine pairing not given here)
247

State the recorded Kd for this entry: L818A: GFP-HIF-1α776–826 C-TAD single alanine variant L818A ({GFP}-SDLACRLLGQSMDESGLPQLTSYDCEVNAPIQGSRNLLQGEEALRALDQVN; cysteine pairing not given here)
237
